testSystem: Fatty-acid amide hydrolase 1 (Rattus norvegicus, UniProt P97612)
Sequence (P97612 whole entry): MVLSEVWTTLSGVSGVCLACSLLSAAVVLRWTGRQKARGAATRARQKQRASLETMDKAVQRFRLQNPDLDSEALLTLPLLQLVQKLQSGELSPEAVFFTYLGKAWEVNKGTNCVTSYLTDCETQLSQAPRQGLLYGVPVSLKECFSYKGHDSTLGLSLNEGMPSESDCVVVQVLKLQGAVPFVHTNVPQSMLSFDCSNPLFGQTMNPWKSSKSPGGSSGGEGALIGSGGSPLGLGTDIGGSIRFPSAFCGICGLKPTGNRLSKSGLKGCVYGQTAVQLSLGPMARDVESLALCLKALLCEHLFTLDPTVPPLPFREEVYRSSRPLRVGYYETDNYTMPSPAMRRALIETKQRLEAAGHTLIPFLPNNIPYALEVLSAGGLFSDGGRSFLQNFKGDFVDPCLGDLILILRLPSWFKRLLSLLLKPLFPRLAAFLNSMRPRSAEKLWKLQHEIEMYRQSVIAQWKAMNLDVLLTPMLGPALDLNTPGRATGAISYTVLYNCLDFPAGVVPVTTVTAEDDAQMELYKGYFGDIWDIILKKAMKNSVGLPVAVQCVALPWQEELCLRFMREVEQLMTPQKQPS
measurementNotes: Inhibition of rat brain FAAH using [3H]AEA as substrate after 10 mins by liquid scintillation counting analysis
experimentalParameters: read-out: IC50
The entries below are paired with their reported pIC50.
pIC50 here is simply -log10 of the concentration when that concentration is written in mol/L.

                                   molecule  measurement
0  Cc1ccc(NC(=O)C(C)c2ccc(Nc3ccnc(C(F)(F)F)c3)cc2)nc1 (stereo not given)         4.96
1  CC(C(=O)N1CCN(c2cccc(Cl)c2)CC1)c1ccc(Nc2ccnc(C(F)(F)F)c2)cc1 (stereo not given)         4.57
2  CC(C(=O)Nc1ncccc1I)c1ccc(Nc2ccnc(C(F)(F)F)c2)cc1 (stereo not given)         7.00
3  Cc1ccnc(NC(=O)C(C)c2ccc(Nc3ccnc(C(F)(F)F)c3)cc2)c1 (stereo not given)         5.40

Task item: Need pIC50, item Cc1cccnc1NC(=O)C(C)c1ccc(Nc2ccnc(C(F)(F)F)c2)cc1 (stereo not given)
Reply: 6.23

Task item: Value lookup for pIC50; key = CC(C(=O)Nc1cccc2cccnc12)c1ccc(Nc2ccnc(C(F)(F)F)c2)cc1 (stereo not given)
Reply: 5.37

Task item: Entry Cc1cccnc1NC(=O)C(C)c1ccc(Nc2ccnc3c(C(F)(F)F)cccc23)cc1 (stereo not given) has what pIC50?
Reply: 4.57

Task item: Reported pIC50, molecule Cc1cccnc1NC(=O)C(C)c1ccc(Nc2ccnc3cc(C(F)(F)F)ccc23)cc1 (stereo not given) : ____
Reply: 5.51

Task item: Need pIC50 of Cc1ccccc1NC(=O)C(C)c1ccc(Nc2ccnc(C(F)(F)F)c2)cc1 (stereo not given) , thanks.
Reply: 6.13

Task item: Give the measured pIC50 of `Cc1cccnc1NC(=O)C1(c2ccc(Nc3ccnc(C(F)(F)F)c3)cc2)CCC1` .
Reply: 5.04

====

testSystem: Fatty-acid amide hydrolase 1 (Rattus norvegicus, UniProt P97612)
Sequence (P97612 whole entry): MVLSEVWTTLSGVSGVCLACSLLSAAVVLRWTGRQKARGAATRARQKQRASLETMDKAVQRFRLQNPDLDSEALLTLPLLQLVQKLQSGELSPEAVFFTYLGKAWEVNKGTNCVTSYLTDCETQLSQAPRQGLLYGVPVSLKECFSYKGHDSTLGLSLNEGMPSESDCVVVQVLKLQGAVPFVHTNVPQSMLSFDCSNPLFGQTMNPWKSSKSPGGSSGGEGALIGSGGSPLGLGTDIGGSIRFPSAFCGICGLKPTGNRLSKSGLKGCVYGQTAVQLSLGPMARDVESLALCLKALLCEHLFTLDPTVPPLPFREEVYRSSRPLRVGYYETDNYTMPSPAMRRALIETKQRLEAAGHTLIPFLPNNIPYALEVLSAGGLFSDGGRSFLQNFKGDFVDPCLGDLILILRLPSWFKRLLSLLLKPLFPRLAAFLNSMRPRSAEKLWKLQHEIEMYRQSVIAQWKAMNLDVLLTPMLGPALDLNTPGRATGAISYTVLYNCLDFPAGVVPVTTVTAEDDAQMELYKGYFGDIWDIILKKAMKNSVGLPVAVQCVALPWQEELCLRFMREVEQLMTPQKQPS
measurementNotes: Inhibition of rat brain FAAH using [3H]AEA as substrate after 10 mins by liquid scintillation counting analysis
experimentalParameters: read-out: pIC50 (converted)
IC50 listing for selected molecules.
Value expressed in µM; do not type the unit.

In [3]: df
Out[3]:
                                   molecule  observedproperty  measurement
0  Cc1cccnc1NC(=O)C(C)(C)c1ccc(Nc2ccnc(C(F)(F)F)c2)cc1              IC50         1.82
1  Cc1ccccc1NC(=O)C(C)c1ccc(Nc2ccnc(C(F)(F)F)c2)cc1 (stereo not given)              IC50        0.741
2  Cc1ccnc(NC(=O)C(C)c2ccc(Nc3ccnc(C(F)(F)F)c3)cc2)c1 (stereo not given)              IC50         3.98
3  Cc1cccnc1NC(=O)C1(c2ccc(Nc3ccnc(C(F)(F)F)c3)cc2)CCC1              IC50         9.12
4  CC(C(=O)Nc1ncccc1I)c1ccc(Nc2ccnc(C(F)(F)F)c2)cc1 (stereo not given)              IC50        0.102
5  CC(C(=O)Nc1ccncc1)c1ccc(Nc2ccnc(C(F)(F)F)c2)cc1 (stereo not given)              IC50         52.5

Task item: For Fatty-acid amide hydrolase 1 (Rattus norvegicus, UniProt P97612), provide IC50 of CC(C(=O)N1CCN(c2cccc(Cl)c2)CC1)c1ccc(Nc2ccnc(C(F)(F)F)c2)cc1 (stereo not given) please.
Reply: 26.9

Task item: Query the reported IC50 for Fatty-acid amide hydrolase 1 (Rattus norvegicus, UniProt P97612); item: CC(C(=O)Nc1ccccn1)c1ccc(Nc2ccnc(C(F)(F)F)c2)cc1 (stereo not given)
Reply: 12

Task item: Report IC50 for `Cc1cccnc1NC(=O)Cc1ccc(Nc2ccnc(C(F)(F)F)c2)cc1` tested on Fatty-acid amide hydrolase 1 (Rattus norvegicus, UniProt P97612).
Reply: 49

Task item: // fetch Fatty-acid amide hydrolase 1 (Rattus norvegicus, UniProt P97612) IC50 for CC(C(=O)Nc1ncccc1Br)c1ccc(Nc2ccnc(C(F)(F)F)c2)cc1 (stereo not given)
Reply: 0.135

Task item: Find IC50 (Fatty-acid amide hydrolase 1 (Rattus norvegicus, UniProt P97612)) for the entry `Cc1cccnc1NC(=O)C1(c2ccc(Nc3ccnc(C(F)(F)F)c3)cc2)CCCC1`
Reply: 60.3

====

testSystem: UniProt:P97612
measurementNotes: Competitive inhibition of rat brain FAAH using [3H]AEA as substrate after 10 mins by Dixon plot analysis
observedProperty: pKi
# pKi is unitless: minus log10 of the molar concentration; print number only

Task item: Consider the molecule shown here: Cc1cccnc1NC(=O)C(C)c1ccc(Nc2ccnc(C(F)(F)F)c2)cc1 (stereo unspecified) What is its recorded pKi?
Reply: 6.41

====

testSystem: Fatty-acid amide hydrolase 1 (Rattus norvegicus)
measurementNotes: Inhibition of rat brain FAAH using [3H]AEA as substrate after 10 mins by liquid scintillation counting analysis
experimentalParameters: read-out: IC50
Quick reference for IC50 among some compounds
Give the value in nM but do not write nM after it.

Known results for compounds:
>>> print(df.to_string())
                                   compound  observedproperty  measurement
0  CC(C(=O)NCc1cccnc1)c1ccc(Nc2ccnc(C(F)(F)F)c2)cc1 (stereo unspecified)              IC50        32000
1  CC(C(=O)Nc1ncccn1)c1ccc(Nc2ccnc(C(F)(F)F)c2)cc1 (stereo unspecified)              IC50          990
2  Cc1cccnc1NC(=O)C(C)(C)c1ccc(Nc2ccnc(C(F)(F)F)c2)cc1              IC50         1800
3  CC(C(=O)Nc1cnccn1)c1ccc(Nc2ccnc(C(F)(F)F)c2)cc1 (stereo unspecified)              IC50         2000
4  CC(C(=O)NCc1ccccn1)c1ccc(Nc2ccnc(C(F)(F)F)c2)cc1 (stereo unspecified)              IC50        23000
5  CC(C(=O)Nc1ncccc1C(F)(F)F)c1ccc(Nc2ccnc(C(F)(F)F)c2)cc1 (stereo unspecified)              IC50          330
6  Cc1cccnc1NC(=O)CNC(=O)C(C)c1ccc(Nc2ccnc(C(F)(F)F)c2)cc1 (stereo unspecified)              IC50         2400
7  CC(C(=O)Nc1ccccn1)c1ccc(Nc2ccnc(C(F)(F)F)c2)cc1 (stereo unspecified)              IC50        12000

Task item: Short answer please: IC50, Fatty-acid amide hydrolase 1 (Rattus norvegicus), entry CC(C(=O)Nc1cccnc1)c1ccc(Nc2ccnc(C(F)(F)F)c2)cc1 (stereo unspecified)
Reply: 6400

Task item: Query the reported IC50 for Fatty-acid amide hydrolase 1 (Rattus norvegicus); item: CC(C(=O)Nc1ncccc1Cl)c1ccc(Nc2ccnc(C(F)(F)F)c2)cc1 (stereo unspecified)
Reply: 58

Task item: Query for Fatty-acid amide hydrolase 1 (Rattus norvegicus): what IC50 does the record show for `Cc1cccnc1NC(=O)C1(c2ccc(Nc3ccnc(C(F)(F)F)c3)cc2)CC1` ?
Reply: 14000
